Test system: morningglory (Ipomoea coccinea)
Assay: Test B pre-/postemergence plant response
Assay type: in vivo
Details: Preemergence, 125 g ai/ha; 0 to 100 scale
measured_quantity: Morningglory plant response rating

>>> result("Cc1ccccc1-n1c(-c2cccc(Cl)c2)ncc(C(=O)C2=C(O)CCCC2=O)c1=O")
0
>>> result("Cc1c(Cl)cccc1-n1c(-c2ccccc2)ncc(C(=O)C2=C(O)CCCC2=O)c1=O")
0
>>> result("Cc1cc(C)cc(-n2c(-c3ccccc3)ncc(C(=O)C3=C(O)CCCC3=O)c2=O)c1")
70
>>> result("Cc1ccc(F)cc1-n1c(-c2ccccc2)ncc(C(=O)C2=C(O)CCCC2=O)c1=O")
50
